# Target: UniProtKB Q14524
# Assay comment: Whole-cell patch clamp, INa in SCN5A-transfected HEK293 cells
# Cond: SCN5A-encoded HEK293 cells
Metric name: IC50 (µM)
Give a bare numeral; the unit µM is implied.

Value of IC50 reported for the compound `COc1cc2c(Nc3ccc(Br)cc3F)ncnc2cc1OCC1CCN(C)CC1` is 36.6

----------
# Target: F656A hERG (Homo sapiens, UniProt Q12809, F656A)
# Sequence (Q12809 whole entry F656A): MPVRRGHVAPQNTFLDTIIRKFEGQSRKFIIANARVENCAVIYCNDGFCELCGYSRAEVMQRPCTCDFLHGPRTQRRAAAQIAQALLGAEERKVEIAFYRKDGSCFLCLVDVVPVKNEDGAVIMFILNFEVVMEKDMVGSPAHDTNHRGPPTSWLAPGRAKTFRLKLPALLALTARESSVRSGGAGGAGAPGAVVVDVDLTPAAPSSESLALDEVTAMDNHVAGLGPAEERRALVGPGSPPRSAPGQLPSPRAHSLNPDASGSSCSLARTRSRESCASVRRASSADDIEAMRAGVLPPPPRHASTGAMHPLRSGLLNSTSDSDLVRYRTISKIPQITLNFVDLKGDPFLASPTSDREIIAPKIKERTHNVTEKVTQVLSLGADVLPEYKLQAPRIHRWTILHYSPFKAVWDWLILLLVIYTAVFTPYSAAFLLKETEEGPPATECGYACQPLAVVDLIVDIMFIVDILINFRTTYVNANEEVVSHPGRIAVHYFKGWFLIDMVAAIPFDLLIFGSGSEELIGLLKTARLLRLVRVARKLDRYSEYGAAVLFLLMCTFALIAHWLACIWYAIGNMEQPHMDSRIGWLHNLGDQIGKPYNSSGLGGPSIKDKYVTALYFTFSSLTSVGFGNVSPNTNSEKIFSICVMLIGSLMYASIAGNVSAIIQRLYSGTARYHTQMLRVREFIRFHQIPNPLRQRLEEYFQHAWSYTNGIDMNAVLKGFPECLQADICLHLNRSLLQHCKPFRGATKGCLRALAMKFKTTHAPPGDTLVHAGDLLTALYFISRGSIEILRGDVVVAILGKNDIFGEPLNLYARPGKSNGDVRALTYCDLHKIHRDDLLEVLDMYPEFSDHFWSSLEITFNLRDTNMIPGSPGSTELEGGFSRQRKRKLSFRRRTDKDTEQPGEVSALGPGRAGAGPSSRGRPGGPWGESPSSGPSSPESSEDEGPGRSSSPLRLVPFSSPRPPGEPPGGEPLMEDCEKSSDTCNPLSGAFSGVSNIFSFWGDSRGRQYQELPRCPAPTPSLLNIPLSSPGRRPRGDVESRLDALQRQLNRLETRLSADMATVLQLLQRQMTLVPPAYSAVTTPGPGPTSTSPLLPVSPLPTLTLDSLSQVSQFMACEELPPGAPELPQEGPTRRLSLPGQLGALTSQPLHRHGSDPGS
# Assay comment: in vitro
# Cond: HEK-293 cells transiently expressing F656A mutant hERG
Metric name: inhibition at 3 μM
Field: value (include unit after the number)

Value of inhibition at 3 μM reported for the compound COc1cc2c(Nc3ccc(Br)cc3F)ncnc2cc1OCC1CCN(C)CC1 [Vandetanib] is 27.4%

----------
# Target: WT hERG (Homo sapiens, UniProt Q12809)
# Sequence (Q12809 whole entry): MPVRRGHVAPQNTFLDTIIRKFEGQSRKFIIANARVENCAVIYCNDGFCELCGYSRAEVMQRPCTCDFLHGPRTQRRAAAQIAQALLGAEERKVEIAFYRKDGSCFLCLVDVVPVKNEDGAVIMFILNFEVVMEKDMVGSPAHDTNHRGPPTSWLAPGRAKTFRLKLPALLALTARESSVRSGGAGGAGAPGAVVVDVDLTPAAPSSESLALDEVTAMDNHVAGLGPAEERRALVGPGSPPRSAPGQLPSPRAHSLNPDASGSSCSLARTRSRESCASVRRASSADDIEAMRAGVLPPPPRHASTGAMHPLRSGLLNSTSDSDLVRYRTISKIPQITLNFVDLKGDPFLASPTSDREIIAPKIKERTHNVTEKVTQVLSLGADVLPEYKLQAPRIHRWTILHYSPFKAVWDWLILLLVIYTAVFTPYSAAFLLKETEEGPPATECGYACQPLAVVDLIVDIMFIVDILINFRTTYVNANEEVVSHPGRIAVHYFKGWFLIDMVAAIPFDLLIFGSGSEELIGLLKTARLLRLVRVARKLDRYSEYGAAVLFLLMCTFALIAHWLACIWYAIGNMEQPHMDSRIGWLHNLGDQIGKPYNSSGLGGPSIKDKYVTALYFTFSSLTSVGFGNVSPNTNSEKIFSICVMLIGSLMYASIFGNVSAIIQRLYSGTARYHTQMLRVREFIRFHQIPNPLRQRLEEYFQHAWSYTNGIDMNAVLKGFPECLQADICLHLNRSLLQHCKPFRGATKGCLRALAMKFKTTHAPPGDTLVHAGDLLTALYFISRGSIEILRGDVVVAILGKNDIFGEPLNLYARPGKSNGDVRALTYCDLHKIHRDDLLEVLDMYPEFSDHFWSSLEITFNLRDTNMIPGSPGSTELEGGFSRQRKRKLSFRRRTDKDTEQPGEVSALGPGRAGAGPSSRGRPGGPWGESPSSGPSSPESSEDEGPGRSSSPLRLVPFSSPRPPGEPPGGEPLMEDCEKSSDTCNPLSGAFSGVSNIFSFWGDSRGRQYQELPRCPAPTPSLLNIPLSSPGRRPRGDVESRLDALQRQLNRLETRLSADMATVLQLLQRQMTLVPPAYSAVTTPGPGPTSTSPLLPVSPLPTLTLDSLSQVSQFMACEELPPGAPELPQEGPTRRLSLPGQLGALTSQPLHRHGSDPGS
# Assay comment: Alanine scanning: wild-type hERG current in HEK-293 cells
# Cond: human, HEK-293 cells transiently expressing wild-type hERG
Metric name: inhibition at 3 μM

Value of inhibition at 3 μM reported for the molecule `COc1cc2c(Nc3ccc(Br)cc3F)ncnc2cc1OCC1CCN(C)CC1` is ~86.4%

----------
# Target: INa in hiPSC-CMs (Homo sapiens, UniProt Q14524)
# Assay comment: INa current in hiPSC-CMs (voltage clamp)
Metric name: pIC50
Entry type: numeric. Quantity: pIC50, the -log10 of concentration in molar units.

Value of pIC50 reported for the compound `COc1cc2c(Nc3ccc(Br)cc3F)ncnc2cc1OCC1CCN(C)CC1` is 5.57

----------
# Target: WT hERG (inward tail current) (Homo sapiens)
# Sequence (Q12809 whole entry): as the sequence (Q12809 whole entry) above
# Cond: human, HEK-293 cells transiently expressing wild-type hERG
Metric name: inhibition at 3 μM (%)
Give a bare numeral; the unit % is implied.

Value of inhibition at 3 μM reported for the compound COc1cc2c(Nc3ccc(Br)cc3F)ncnc2cc1OCC1CCN(C)CC1 [Vandetanib] is 69
